Origin of measurements: patent US11414387B2

Target: hSTING-R232 (Homo sapiens (Human), UniProt Q86WV6, H232R)
Sequence (Q86WV6 140-379 H232R): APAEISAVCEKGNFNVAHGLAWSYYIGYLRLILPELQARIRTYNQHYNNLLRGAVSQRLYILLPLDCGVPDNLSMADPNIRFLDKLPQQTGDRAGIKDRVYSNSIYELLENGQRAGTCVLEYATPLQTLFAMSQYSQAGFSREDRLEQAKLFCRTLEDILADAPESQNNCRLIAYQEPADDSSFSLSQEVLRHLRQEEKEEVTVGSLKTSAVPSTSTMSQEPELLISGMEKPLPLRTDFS
Assay: STING differential scanning fluorimetry (DSF) assay, WT human STING
Conditions: WT (R232) human STING aa140-379, net shift in melting temperature
readout type: WT_DSF_hSWAT Tm Shift (° C.)

Consider the following illustrative entries.
[
  {
    "query smiles": "COc1c(Cl)ccc2c(=O)c3ccc(C4CCNCC4)cc3n(CC(=O)O)c12",
    "meas value": "C (“C” = 2-7° C,)"
  },
  {
    "query smiles": "Cc1ccc2c(=O)c3ccc(Cl)cc3n([C@H](C)C(=O)O)c2c1",
    "meas value": "A (“A” < 0° C.)"
  },
  {
    "query smiles": "Cc1ccc(S(=O)(=O)NC(=O)Cn2c3cc(C(C)C)ccc3c(=O)c3ccc(Cl)c(Cl)c32)cc1",
    "meas value": "A (“A” < 0° C.)"
  },
  {
    "query smiles": "O=C(O)Cn1c2ccccc2c(=O)c2ccc(Cl)c(OCCCO)c21",
    "meas value": "B (“B” = 0-2° C.)"
  },
  {
    "query smiles": "O=C(O)Cn1c2cc(N3CCCC3)ccc2c(=O)c2ccc(Cl)c(Br)c21",
    "meas value": "C (“C” = 2-7° C,)"
  }
]

Moving on to the next compound.
*Q* State its WT_DSF_hSWAT Tm Shift (° C.): CC(C)Oc1c(Cl)ccc2c(=O)c3ccc(C(C)(C)C)cc3n(CC(=O)O)c12
*A* D (“D” > 7° C.)

----------
Target: hSTING-R232 (Homo sapiens (Human), UniProt Q86WV6, H232R)
Experiment: STING differential scanning fluorimetry (DSF) assay, WT human STING
Conditions: WT (R232) human STING aa140-379, net shift in melting temperature
readout type: WT_DSF_hSWAT Tm Shift (° C.)

[
  {
    "molecule": "Cn1ccc(-c2ccc3c(=O)c4ccc(Cl)c(Cl)c4n(CC(=O)O)c3c2)n1 [Compound 184]",
    "target desc": "hSTING-R232 (Homo sapiens (Human), UniProt Q86WV6, H232R)",
    "WT_DSF_hSWAT Tm Shift (° C.)": "C (“C” = 2-7° C,)"
  },
  {
    "molecule": "CC(C)Sc1ccc2c(=O)c3ccc(Cl)c(Cl)c3n(CC(=O)O)c2c1 [Compound 149]",
    "target desc": "hSTING-R232 (Homo sapiens (Human), UniProt Q86WV6, H232R)",
    "WT_DSF_hSWAT Tm Shift (° C.)": "C (“C” = 2-7° C,)"
  },
  {
    "molecule": "CC(C)c1ccc2c(=O)c3ccc(Cl)c(Cl)c3n(CC(=O)NS(C)(=O)=O)c2c1 [Compound 352]",
    "target desc": "hSTING-R232 (Homo sapiens (Human), UniProt Q86WV6, H232R)",
    "WT_DSF_hSWAT Tm Shift (° C.)": "C (“C” = 2-7° C,)"
  },
  {
    "molecule": "CC(C)c1ccc2c(=O)c3ccc(Br)c(Cl)c3n(CC(=O)O)c2c1 [Compound 170]",
    "target desc": "hSTING-R232 (Homo sapiens (Human), UniProt Q86WV6, H232R)",
    "WT_DSF_hSWAT Tm Shift (° C.)": "B (“B” = 0-2° C.)"
  },
  {
    "molecule": "COc1c(Cl)c(O)cc2c(=O)c3ccccc3n(CC(=O)O)c12 [Compound 315]",
    "target desc": "hSTING-R232 (Homo sapiens (Human), UniProt Q86WV6, H232R)",
    "WT_DSF_hSWAT Tm Shift (° C.)": "B (“B” = 0-2° C.)"
  }
]

*Q* Please tell me the measured WT_DSF_hSWAT Tm Shift (° C.) for CNc1ccc2c(=O)c3ccc(Cl)c(OC)c3n(CC(=O)O)c2c1 [Compound 299] ; system: hSTING-R232 (Homo sapiens (Human), UniProt Q86WV6, H232R).
*A* C (“C” = 2-7° C,)

*Q* Please tell me the measured WT_DSF_hSWAT Tm Shift (° C.) for CC(C)(C)CNc1ccc2c(=O)c3ccc(Cl)c(Cl)c3n(CC(=O)O)c2c1 [Compound 138] ; system: hSTING-R232 (Homo sapiens (Human), UniProt Q86WV6, H232R).
*A* C (“C” = 2-7° C,)

*Q* Please tell me the measured WT_DSF_hSWAT Tm Shift (° C.) for O=C(O)Cn1c2cc(C3CCCCC3)ccc2c(=O)c2ccc(Cl)c(Cl)c21 [Compound 115] ; system: hSTING-R232 (Homo sapiens (Human), UniProt Q86WV6, H232R).
*A* C (“C” = 2-7° C,)
